Target: Dual specificity calcium/calmodulin-dependent 3',5'-cyclic nucleotide phosphodiesterase 1C (Homo sapiens, UniProt Q14123)
Sequence (Q14123 whole entry): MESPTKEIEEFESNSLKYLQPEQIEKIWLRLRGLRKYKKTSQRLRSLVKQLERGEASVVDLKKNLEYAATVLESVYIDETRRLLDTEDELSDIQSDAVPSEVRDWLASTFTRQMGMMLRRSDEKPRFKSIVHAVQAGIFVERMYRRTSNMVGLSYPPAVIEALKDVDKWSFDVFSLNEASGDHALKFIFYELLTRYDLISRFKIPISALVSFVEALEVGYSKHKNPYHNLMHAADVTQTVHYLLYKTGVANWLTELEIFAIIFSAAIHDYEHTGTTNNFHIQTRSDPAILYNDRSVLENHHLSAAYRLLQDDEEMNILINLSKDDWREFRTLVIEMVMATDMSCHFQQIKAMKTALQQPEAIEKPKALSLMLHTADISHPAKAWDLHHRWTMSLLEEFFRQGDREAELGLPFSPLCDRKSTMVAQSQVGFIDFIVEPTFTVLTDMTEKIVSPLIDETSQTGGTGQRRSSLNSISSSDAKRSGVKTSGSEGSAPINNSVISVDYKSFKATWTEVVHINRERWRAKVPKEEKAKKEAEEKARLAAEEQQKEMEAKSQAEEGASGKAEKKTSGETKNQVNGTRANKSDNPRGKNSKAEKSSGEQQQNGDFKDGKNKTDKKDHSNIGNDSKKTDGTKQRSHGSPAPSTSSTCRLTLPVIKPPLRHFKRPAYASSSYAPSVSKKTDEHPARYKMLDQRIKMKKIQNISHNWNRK
Experiment: Inhibition of human recombinant PDE1C expressed in Sf9 cells using [3H]cAMP as substrate after 30 mins by scintillation proximity assay
pIC50: −log10 of the molar value.
measuredEndpoint: pIC50

Some compounds with recorded pIC50:
compound | pIC50
O=c1[nH]c(Cc2ccccc2)nc2c1cnn2C1CCOCC1 | 7.85
C[C@@H]1CNC[C@H]1c1nc2c(cnn2C2CCOCC2)c(=O)[nH]1 | 5.47
C[C@@H]1CN(Cc2ncccn2)C[C@H]1c1nc2c(cnn2C2CCOCC2)c(=O)[nH]1 | 5.86
C[C@@H]1CN(Cc2cccc(F)c2)C[C@H]1c1nc2c(cnn2C2CCOCC2)c(=O)[nH]1 | 6.16
C[C@H]1CN(Cc2ccccc2)C[C@@H]1c1nc2c(cnn2C2CCOCC2)c(=O)[nH]1 | 5.25

P: Cc1ccc(CN2C[C@@H](C)[C@H](c3nc4c(cnn4C4CCOCC4)c(=O)[nH]3)C2)cn1
Q: Cc1ncc(CN2C[C@@H](C)[C@H](c3nc4c(cnn4C4CCOCC4)c(=O)[nH]3)C2)cn1
Query string: Smaller pIC50 value, P vs Q ? Returns: label corresponding to the selected item.
Result string: Q

---

Target: High affinity cAMP-specific and IBMX-insensitive 3',5'-cyclic phosphodiesterase 8B (Homo sapiens, UniProt O95263)
Sequence (O95263 whole entry): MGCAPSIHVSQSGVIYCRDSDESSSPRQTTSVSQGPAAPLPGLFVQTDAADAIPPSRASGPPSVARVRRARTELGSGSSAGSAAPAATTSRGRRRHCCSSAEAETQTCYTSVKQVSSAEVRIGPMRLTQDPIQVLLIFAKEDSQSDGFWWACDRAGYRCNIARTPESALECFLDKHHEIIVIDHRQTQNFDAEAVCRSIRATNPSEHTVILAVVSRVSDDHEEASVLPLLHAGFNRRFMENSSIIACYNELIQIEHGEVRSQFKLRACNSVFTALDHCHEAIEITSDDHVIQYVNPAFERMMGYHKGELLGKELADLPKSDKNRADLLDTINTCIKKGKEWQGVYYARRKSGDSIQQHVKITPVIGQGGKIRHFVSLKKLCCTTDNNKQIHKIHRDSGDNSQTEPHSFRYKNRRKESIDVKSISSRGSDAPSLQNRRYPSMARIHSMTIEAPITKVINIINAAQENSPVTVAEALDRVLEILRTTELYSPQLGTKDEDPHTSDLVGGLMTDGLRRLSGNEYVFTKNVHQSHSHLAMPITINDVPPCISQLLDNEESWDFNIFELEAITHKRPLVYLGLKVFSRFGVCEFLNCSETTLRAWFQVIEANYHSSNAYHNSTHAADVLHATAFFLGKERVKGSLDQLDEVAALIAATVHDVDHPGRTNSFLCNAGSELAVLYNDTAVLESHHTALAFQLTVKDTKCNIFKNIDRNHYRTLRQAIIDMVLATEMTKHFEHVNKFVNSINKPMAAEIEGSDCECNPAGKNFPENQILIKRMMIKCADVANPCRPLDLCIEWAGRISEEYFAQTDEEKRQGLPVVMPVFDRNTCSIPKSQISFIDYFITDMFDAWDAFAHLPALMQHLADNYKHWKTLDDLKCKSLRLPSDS
pIC50: −log10 of the molar value.
measuredEndpoint: pIC50

Form field pIC50, entry C[C@@H]1CN(Cc2ncccn2)C[C@H]1c1nc2c(cnn2C2CCOCC2)c(=O)[nH]1 : < 5.00

---

Assay: Fraction unbound in rat plasma after 6 hrs by equilibrium dialysis method
Format: ADME, cell-free
measuredEndpoint: fraction unbound at 6 h
Just the number, please.

Briefly, fraction unbound at 6 h measured for C[C@@H]1CN(Cc2ccccc2)C[C@H]1c1nc2c(cnn2C2CCOCC2)c(=O)[nH]1 : 0.4

---

Molecular target: Dual specificity calcium/calmodulin-dependent 3',5'-cyclic nucleotide phosphodiesterase 1C (Homo sapiens)
Assay: Inhibition of human recombinant PDE1C expressed in Sf9 cells using [3H]cAMP as substrate after 30 mins by scintillation proximity assay
measuredEndpoint: IC50 (nM)

Before answering, review these 2 worked examples.
givenSmiles | quantityUnit | IC50
C[C@@H]1CN(Cc2ccc(F)cc2)C[C@H]1c1nc2c(cnn2C2CCOCC2)c(=O)[nH]1 | nM | 165
Cc1cnc(CN2C[C@@H](C)[C@H](c3nc4c(cnn4C4CCOCC4)c(=O)[nH]3)C2)cn1 | nM | 1600

I: COc1ccc(CN2C[C@@H](C)[C@H](c3nc4c(cnn4C4CCOCC4)c(=O)[nH]3)C2)cc1
II: C[C@@H]1CN(Cc2ccccn2)C[C@H]1c1nc2c(cnn2C2CCOCC2)c(=O)[nH]1
III: C[C@@H]1CN(Cc2ccccc2F)C[C@H]1c1nc2c(cnn2C2CCOCC2)c(=O)[nH]1
Query string: In this exercise, place the 3 compounds in ascending sequence of their recorded IC50. Please write the labels in the order that was asked for.
Result string: I, III, II

---

Experiment: Intrinsic clearance in human liver microsomes at 0.1 uM by LC-MS/MS analysis
Format: ADME, Microsome
Details: read-out: CLH
measuredEndpoint: CLint scaled at 0.1 µM (mL/min/kg)

Below, 4 compounds whose answers are already recorded.
compound | CLint scaled at 0.1 µM [mL/min/kg]
O=c1[nH]c(Cc2ccccc2)nc2c1cnn2C1CCOCC1 | 14
COc1ccc(CN2C[C@@H](C)[C@H](c3nc4c(cnn4C4CCOCC4)c(=O)[nH]3)C2)cc1 | 17
C[C@@H]1CN(Cc2ccccc2F)C[C@H]1c1nc2c(cnn2C2CCOCC2)c(=O)[nH]1 | 127
C[C@@H]1CN(Cc2cccc(F)c2)C[C@H]1c1nc2c(cnn2C2CCOCC2)c(=O)[nH]1 | 114

A: C[C@H]1CN(Cc2ccccc2)C[C@@H]1c1nc2c(cnn2C2CCOCC2)c(=O)[nH]1
B: CC[C@@H]1CN(Cc2ccccc2)C[C@H]1c1nc2c(cnn2C2CCOCC2)c(=O)[nH]1 (relative stereo)
C: O=c1[nH]c(Cc2ccccc2)nc2c1cnn2C1CCCC1
Query string: Let's sort these by CLint scaled at 0.1 µM, smallest first. Go ahead? Please list the labels according to the requested order.
Result string: A, B, C
(A: 17 mL/min/kg, B: 89.8 mL/min/kg, C: 200 mL/min/kg)
